FYI, the data here is from patent US20040002442A1.

target.under.test: T1, glucagon receptor present in the plasma membranes isolated from rat liver (rat, UniProt P30082 27-485)
T1 construct: whole, on cells
method.notes: 125I-glucagon displacement, rat liver plasma membranes
Ends that are not written are not given here.
// reported IC50 per item

Entry HSQGTFTSDYARYLDAAKAKEFIAWLVKGRG [G61] , IC50 reported as 232 nM

get_value(item= HSQGTFTSDYAKYLDARRAKEFIAWLVKGRC [G77] , readout=IC50) returns 61.1 nM

Query HSQGTFTSDYAKYLDAARAKEFIAWLVKGR-NH2 [G57] yields IC50 of 178 nM
